Item-by-item account of pIC50
Biological target: ERK8 (Homo sapiens)
Construct: full-length GST-ERK8 (baculovirus-expressed, GST-ERK8Bac)
Sequence (Q8TD08 whole entry): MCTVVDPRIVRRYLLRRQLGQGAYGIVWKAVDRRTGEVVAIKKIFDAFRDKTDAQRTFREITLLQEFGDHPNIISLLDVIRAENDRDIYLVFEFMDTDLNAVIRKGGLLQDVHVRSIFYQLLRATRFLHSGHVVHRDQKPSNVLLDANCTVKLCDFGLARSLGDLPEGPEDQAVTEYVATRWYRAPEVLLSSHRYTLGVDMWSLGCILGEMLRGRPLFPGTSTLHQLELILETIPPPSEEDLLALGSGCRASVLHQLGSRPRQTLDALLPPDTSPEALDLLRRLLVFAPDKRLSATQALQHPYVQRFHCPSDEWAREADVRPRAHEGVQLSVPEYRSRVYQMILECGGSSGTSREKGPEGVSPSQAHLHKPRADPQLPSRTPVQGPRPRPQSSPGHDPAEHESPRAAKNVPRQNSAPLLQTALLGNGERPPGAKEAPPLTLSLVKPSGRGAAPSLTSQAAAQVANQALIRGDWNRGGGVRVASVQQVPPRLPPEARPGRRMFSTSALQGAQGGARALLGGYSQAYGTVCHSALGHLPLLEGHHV
Assay: radiometric [γ-32P]ATP kinase assay with MBP substrate, dose/response; ATP competition; reduced inhibition of F92I mutant
pIC50: −log10 of the molar value.

smilesEntry | pIC50
CCOC(=O)c1c(C(=O)CSc2nc(-c3ccccc3)cc(-c3ccc(OC)cc3)c2C#N)sc2c1CCCC2 | 4.57
COc1ccccc1NC(=O)c1cccc(Nc2nc(-c3ccccc3)c3cc(Br)ccc3n2)c1 | 4.77
